- EXPERIMENTAL_SYSTEM: MASP-2 CCP2-SP (Homo sapiens (Human))
- Sequence (O00187 445-686): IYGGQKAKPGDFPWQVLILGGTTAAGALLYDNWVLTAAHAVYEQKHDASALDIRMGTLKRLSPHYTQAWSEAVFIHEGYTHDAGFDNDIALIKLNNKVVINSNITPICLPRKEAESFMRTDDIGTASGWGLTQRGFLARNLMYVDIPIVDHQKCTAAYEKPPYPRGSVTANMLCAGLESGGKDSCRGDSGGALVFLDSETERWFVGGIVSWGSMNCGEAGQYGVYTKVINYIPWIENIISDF
- Sequence (O00187 364-432 partner): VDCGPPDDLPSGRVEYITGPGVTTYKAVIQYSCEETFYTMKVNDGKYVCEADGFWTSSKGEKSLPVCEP
- PROTOCOL: MASP-2 co-crystallization, X-ray crystallography and structure analysis (H-bonds, van der Waals contacts)
- MEASUREMENT_SETUP: Table A2-4
Counter-ions that a name gives are not always drawn.
Assign van der Waals contact distance, MASP-2 PRO 606 atom C to each entry below.
Give the value as a plain number.

[ask] So what does the record say about van der Waals contact distance, MASP-2 PRO 606 atom C for C[C@H](NC(=O)[C@H]1C[C@@H](c2ccccc2)CN1)C(=O)NCc1ccc(C(=N)N)cc1 ?
[reply] 3.89

[ask] So what does the record say about van der Waals contact distance, MASP-2 PRO 606 atom C for C[C@H](NC(=O)[C@H](N)C1Cc2ccccc2C1)C(=O)NCc1ccc2c(N)nccc2c1 [compound 1088, Dihydrochloride] ?
[reply] 3.89

[ask] So what does the record say about van der Waals contact distance, MASP-2 PRO 606 atom C for N=C(N)c1ccc(CNC(=O)[C@@H]2CCN2C(=O)[C@H](NCC(=O)O)C2Cc3ccccc3C2)cc1 ?
[reply] 3.86

[ask] So what does the record say about van der Waals contact distance, MASP-2 PRO 606 atom C for C[C@H](NC(=O)[C@H]1Cc2c([nH]c3ccccc23)CN1)C(=O)NCc1ccc(C(=N)N)cc1 ?
[reply] 3.74

###

- EXPERIMENTAL_SYSTEM: UniProt:O00187
- PROTOCOL: MASP-2 co-crystallization, X-ray crystallography and structure analysis (H-bonds, van der Waals contacts)
- MEASUREMENT_SETUP: Table A7-1; between pharmacophore elements of the bound compound
Threshold 100: Pharmacophore torsion angle a(H4, O1, O2, N2) strictly smaller gives rule met, otherwise rule not met.

[ask] For this compound, is Pharmacophore torsion angle a(H4, O1, O2, N2) lower than 100? Cc1nc(N)ccc1CNC(=O)[C@H](C)NC(=O)[C@H]1C[C@H](Cc2cccc(Cl)c2)CN1.Cl.Cl [1328_4]
[reply] rule not met

[ask] For this compound, is Pharmacophore torsion angle a(H4, O1, O2, N2) lower than 100? CC(=O)Nc1ccc(CCNC(CCc2ccccc2)C(=O)NC(C)C(=O)NCc2ccc(C(=N)N)cc2)cc1.Cl.Cl (stereo not shown) [1345_1]
[reply] rule not met

[ask] For this compound, is Pharmacophore torsion angle a(H4, O1, O2, N2) lower than 100? CC(NC(=O)C(CCc1ccccc1)NCCCc1ccc(O)cc1)C(=O)NCc1ccc(C(=N)N)cc1.Cl.Cl (stereo not shown) [1145_A]
[reply] rule not met

[ask] For this compound, is Pharmacophore torsion angle a(H4, O1, O2, N2) lower than 100? Cc1nc(N)ccc1CNC(=O)[C@H](C)NC(=O)[C@H]1C[C@H](Cc2ccc(-c3ccccc3)cc2)CN1 [compound 1351]
[reply] rule not met

[ask] For this compound, is Pharmacophore torsion angle a(H4, O1, O2, N2) lower than 100? C[C@H](NC(=O)[C@H]1C[C@@H](c2ccccc2)CCN1)C(=O)NCc1cc(Cl)ccc1O.Cl [1078_5]
[reply] rule met

[ask] For this compound, is Pharmacophore torsion angle a(H4, O1, O2, N2) lower than 100? C[C@H](NC(=O)[C@H]1C[C@@H](c2ccccc2)CCN1)C(=O)NCc1cc(Cl)ccc1O.Cl [1078_4]
[reply] rule met

[ask] For this compound, is Pharmacophore torsion angle a(H4, O1, O2, N2) lower than 100? C[C@H](NC(=O)[C@H](N)CCc1ccccc1)C(=O)NCc1ccc(N)nc1.Cl.Cl [1007_1]
[reply] rule not met
